target_entity: DPPIV enzyme; human recombinant (Homo sapiens)
Construct: purchased BIOMOL E434-9090 (kit AK-499)
Sequence (P27487 whole entry): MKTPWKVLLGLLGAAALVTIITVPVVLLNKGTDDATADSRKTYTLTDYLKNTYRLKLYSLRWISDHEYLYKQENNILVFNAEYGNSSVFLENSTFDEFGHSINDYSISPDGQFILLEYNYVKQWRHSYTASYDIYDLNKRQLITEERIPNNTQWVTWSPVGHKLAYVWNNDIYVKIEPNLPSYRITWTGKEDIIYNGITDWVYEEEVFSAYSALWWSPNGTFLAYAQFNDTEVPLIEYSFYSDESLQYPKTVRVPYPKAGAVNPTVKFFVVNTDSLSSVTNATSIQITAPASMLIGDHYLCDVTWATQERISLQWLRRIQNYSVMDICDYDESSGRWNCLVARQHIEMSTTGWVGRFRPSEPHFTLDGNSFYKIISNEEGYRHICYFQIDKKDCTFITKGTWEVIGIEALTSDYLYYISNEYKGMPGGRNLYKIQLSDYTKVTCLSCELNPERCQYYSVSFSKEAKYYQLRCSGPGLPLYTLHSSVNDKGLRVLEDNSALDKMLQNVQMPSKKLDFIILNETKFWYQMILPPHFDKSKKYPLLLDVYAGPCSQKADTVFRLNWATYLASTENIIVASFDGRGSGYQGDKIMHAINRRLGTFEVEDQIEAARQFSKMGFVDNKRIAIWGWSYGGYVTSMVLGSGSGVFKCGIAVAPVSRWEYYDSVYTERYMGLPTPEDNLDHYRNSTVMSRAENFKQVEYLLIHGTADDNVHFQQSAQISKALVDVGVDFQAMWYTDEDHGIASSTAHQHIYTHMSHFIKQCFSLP
test_method_notes: DPPIV inhibitory activity (DPPIV Drug Discovery Kit-AK-499, H-Gly-Pro-AMC substrate)
Format: biochemical
assay_context: peptides; human recombinant DPPIV
Square brackets hold non-standard residues; d marks the D form. Peptide text beside a SMILES is read from it. Hyp = O=C(O)[C@@H]1C[C@@H](O)CN1
parameter: IC50 (concentration at which 50% of DPPIV activity was inhibited)

The examples below pair each entry with its known result.
compound | value_measured
N[C@@H](CO)C(=O)N1C[C@H](O)C[C@H]1C(=O)O [SO, Ser-Hyp] (H-Ser-[Hyp]-OH; N-terminus and C-terminus assumed) | 3.6 mM
N[C@@H](CCC(=O)O)C(=O)N1C[C@H](O)C[C@H]1C(=O)NCC(=O)O [EOG, Glu-Hyp-Gly] (H-Glu-[Hyp]-Gly-OH; N-terminus and C-terminus assumed) | 2.9 mM
CC[C@H](C)[C@H](N)C(=O)N1C[C@H](O)C[C@H]1C(=O)O [IO, Ile-Hyp] (H-Ile-[Hyp]-OH; N-terminus and C-terminus assumed) | 2.9 mM

Field IC50 (concentration at which 50% of DPPIV activity was inhibited) (entry NCC(=O)N1CCC[C@H]1C(=O)N1C[C@H](O)C[C@H]1C(=O)O [GPO, Gly-Pro-Hyp] (H-Gly-Pro-[Hyp]-OH) ) reads >10 mM

Field IC50 (concentration at which 50% of DPPIV activity was inhibited) (entry N[C@@H](CO)C(=O)N1C[C@H](O)C[C@H]1C(=O)NCC(=O)O [SOG, Ser-Hyp-Gly] (H-Ser-[Hyp]-Gly-OH; N-terminus and C-terminus assumed) ) reads 3.0 mM

Field IC50 (concentration at which 50% of DPPIV activity was inhibited) (entry C[C@H](N)C(=O)N1C[C@H](O)C[C@H]1C(=O)O [AO, Ala-Hyp] (H-Ala-[Hyp]-OH; N-terminus and C-terminus assumed) ) reads >10 mM
